# assay_name: Pharmacokinetics analysis in mice (oral; plasma and brain)
# Assay type: in vivo
# conditions_used: male, C57BL/6J, mouse, brain, 30 mg/kg, 2 h
measured_endpoint: concentration at 2 h (ng/g)
A number alone suffices; assume ng/g.

Request: # return recorded concentration at 2 h for entry Cc1cc([C@H]2CN(c3cc(F)c4c(N)nncc4c3)CCN2c2cccc(F)c2)no1 [Compound (R)-8]
Result: 3830

----------
# system_tested: MDR1 (P-gp) (Homo sapiens, UniProt P08183)
# Construct: expressed in transfected cells
# Sequence (P08183 whole entry): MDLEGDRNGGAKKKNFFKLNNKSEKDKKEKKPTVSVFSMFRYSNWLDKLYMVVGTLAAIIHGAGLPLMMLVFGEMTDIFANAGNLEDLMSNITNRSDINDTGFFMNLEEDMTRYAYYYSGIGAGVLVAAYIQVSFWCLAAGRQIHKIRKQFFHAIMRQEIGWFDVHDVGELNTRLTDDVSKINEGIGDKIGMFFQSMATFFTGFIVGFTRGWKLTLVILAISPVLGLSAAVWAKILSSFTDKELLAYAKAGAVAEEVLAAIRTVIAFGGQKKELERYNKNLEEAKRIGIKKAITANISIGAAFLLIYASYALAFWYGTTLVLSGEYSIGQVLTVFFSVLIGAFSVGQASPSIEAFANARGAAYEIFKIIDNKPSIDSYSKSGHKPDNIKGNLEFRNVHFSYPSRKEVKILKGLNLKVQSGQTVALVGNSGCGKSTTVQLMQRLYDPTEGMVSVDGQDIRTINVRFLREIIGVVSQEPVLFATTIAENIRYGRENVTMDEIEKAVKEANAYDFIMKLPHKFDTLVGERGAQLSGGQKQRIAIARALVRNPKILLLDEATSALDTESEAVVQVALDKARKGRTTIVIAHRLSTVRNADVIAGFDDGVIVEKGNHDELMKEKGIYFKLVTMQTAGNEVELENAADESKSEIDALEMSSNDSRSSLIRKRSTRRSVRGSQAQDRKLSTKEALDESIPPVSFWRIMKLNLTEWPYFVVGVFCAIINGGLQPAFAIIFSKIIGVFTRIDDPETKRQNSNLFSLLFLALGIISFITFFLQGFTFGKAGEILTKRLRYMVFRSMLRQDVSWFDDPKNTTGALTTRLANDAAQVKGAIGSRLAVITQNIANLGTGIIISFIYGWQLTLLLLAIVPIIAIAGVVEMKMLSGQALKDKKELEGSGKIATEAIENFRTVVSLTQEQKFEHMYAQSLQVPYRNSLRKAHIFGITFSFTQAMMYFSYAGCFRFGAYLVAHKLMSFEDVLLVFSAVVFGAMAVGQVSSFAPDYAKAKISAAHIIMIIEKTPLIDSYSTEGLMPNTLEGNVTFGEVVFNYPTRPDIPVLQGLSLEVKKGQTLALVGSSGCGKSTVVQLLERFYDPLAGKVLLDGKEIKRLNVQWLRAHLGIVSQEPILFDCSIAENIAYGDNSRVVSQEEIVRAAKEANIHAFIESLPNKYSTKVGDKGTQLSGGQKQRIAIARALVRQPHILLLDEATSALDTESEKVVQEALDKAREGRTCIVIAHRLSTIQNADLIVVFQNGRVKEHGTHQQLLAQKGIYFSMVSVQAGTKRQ
# assay_name: Membrane permeability with human MDR-1 expressing cells
# Type: in vitro ADME
# conditions_used: human; MDR1-expressing cells, 1 μmol/L, 2 h
measured_endpoint: Papp A→B at 2 h, 1 μmol/L (×10⁻⁶ cm/s)
# value in ×10⁻⁶ cm/s; strip the unit string

molecule="Cc1cc([C@H]2CN(c3ccc4c(N)nncc4c3)CCN2c2cccc(F)c2)no1.O=C(O)C(F)(F)F [Compound (R)-7]" measured_endpoint="Papp A→B at 2 h, 1 μmol/L" reported_value=0.3

Request: Write Papp A→B at 2 h, 1 μmol/L of Cc1cc([C@H]2CN(c3cc(F)c4c(N)nncc4c3)CCN2c2cccc(F)c2)no1 [Compound (R)-8] ; system used: MDR1 (P-gp) (Homo sapiens, UniProt P08183)
Result: 1.4

----------
# assay_name: PAMPA
# Format: in vitro ADME
# conditions_used: PAMPA, pH 7.4
measured_endpoint: Papp at 3 h, 10 μmol/L (×10⁻⁶ cm/s)
Express the result in ×10⁻⁶ cm/s but write the number alone.

Request: Identify Papp at 3 h, 10 μmol/L associated with the molecule Cc1cc([C@H]2CN(c3ccc4c(N)nncc4c3)CCN2c2cccc(F)c2)no1.O=C(O)C(F)(F)F [Compound (R)-7]
Result: 1.9

----------
# assay_name: Pharmacokinetics analysis in mice (oral; plasma and brain)
# Format: in vivo
# conditions_used: male, C57BL/6J, mouse, brain, 10 mg/kg, 24 h
measured_endpoint: concentration at 24 h (ng/g)
Could you give me the number in ng/g? Just the number is fine.

Request: For the compound Cc1cc([C@H]2CN(c3cc(F)c4c(N)nncc4c3)CCN2c2cccc(F)c2)no1 [Compound (R)-8] , report concentration at 24 h.
Result: 5.2

----------
# system_tested: human MASP2 (Homo sapiens, UniProt O00187)
# Construct: Recombinant human MASP2 (298–686 aa) fused with both the N-terminal IgG signal peptide; IgG signal peptide (N); His tag (C); made in house; host or cells: Expi293 cells
# Sequence (O00187 298-686): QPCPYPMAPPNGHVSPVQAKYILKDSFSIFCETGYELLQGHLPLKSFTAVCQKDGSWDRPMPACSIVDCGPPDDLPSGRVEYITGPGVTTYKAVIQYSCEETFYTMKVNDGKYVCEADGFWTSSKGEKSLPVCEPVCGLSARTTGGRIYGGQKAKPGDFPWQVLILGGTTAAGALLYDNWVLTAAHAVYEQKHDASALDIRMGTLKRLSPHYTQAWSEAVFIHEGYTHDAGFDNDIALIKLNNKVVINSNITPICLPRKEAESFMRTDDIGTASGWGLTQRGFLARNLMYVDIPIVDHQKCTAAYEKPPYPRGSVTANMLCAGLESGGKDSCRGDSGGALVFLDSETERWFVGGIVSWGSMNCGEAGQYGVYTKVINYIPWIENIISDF
# assay_name: Human MASP2 enzyme assay
# Format: biochemical
# conditions_used: supplementary csv
measured_endpoint: IC50

Request: Specify reported IC50 for the compound shown: Cc1cc([C@H]2CN(c3cc(F)c4c(N)nncc4c3)CCN2c2cccc(F)c2)no1 [Compound (R)-8]
Result: > 30 µM

----------
# system_tested: human kallikrein
# assay_name: Human kallikrein enzyme assay
# conditions_used: supplementary csv
pIC50: −log10 of the molar value.
measured_endpoint: pIC50

Request: Send back human kallikrein pIC50 of Cc1cc([C@H]2CN(c3cc(F)c4c(N)nncc4c3)CCN2c2cccc(F)c2)no1 [Compound (R)-8] only.
Result: < 4.52

----------
# system_tested: human C1s (Homo sapiens, UniProt P09871)
# Construct: Recombinant human C1s (358–688 aa) fused with both the N-terminal IgG signal peptide; IgG signal peptide (N); His tag (C); made in house; host or cells: HEK293 cells
# Sequence (P09871 358-688): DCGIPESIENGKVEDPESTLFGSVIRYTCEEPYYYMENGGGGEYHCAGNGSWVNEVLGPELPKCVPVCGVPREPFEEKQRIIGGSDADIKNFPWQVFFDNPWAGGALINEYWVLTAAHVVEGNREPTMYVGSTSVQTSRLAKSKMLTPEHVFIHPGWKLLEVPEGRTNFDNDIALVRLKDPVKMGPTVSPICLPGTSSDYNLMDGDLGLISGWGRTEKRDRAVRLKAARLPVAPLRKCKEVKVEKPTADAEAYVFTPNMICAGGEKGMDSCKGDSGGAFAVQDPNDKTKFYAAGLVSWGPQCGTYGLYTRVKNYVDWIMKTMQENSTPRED
# assay_name: Human C1s enzyme assay
# Type: biochemical
# conditions_used: 95% confidence intervals in parentheses
# Procedure: Recombinant human C1s (358–688 aa) fused with both the N-terminal IgG signal peptide and the C-terminal His tag was expressed in HEK293 cells and purified. The assay was performed in a 384-well clear plate in a total volume of 20 μL of an assay buffer 1 [50 mmol/L Tris–HCl (pH 7.5), 150 mmol/L NaCl, 0.01% (w/v) Tween 20, and 0.01% (w/v) BSA]. […] The absorbance at 405 nm was detected using an EnVision multilabel plate reader. […] The IC50 values were calculated using IDBS XLfit software.
measured_endpoint: pIC50
# pIC50: negative log10 of molar concentration; output just the value

molecule=Nc1nncc2cc(N3CCN(c4cccc(Cl)c4)CC3)ccc12 reported_value=6.41
molecule=Cc1ccc(C(=O)N2CCN(c3ccc4c(N)nccc4c3)CC2)cc1 reported_value=4.02
molecule=N#Cc1cccc(N2CCN(c3ccc4c(N)nncc4c3)CC2)c1 reported_value=5.85
molecule=Nc1nncc2cc(N3CCN(C(=O)c4ccccc4)CC3)ccc12 reported_value=5.29
molecule="C[C@@H]1CN(c2ccc3c(N)nncc3c2)CCN1c1cccc(F)c1 [(R)-6]" reported_value=6.09
molecule="C[C@H]1CN(c2ccc3c(N)nncc3c2)CCN1c1cccc(F)c1 [(S)-6]" reported_value=6.77
molecule=Nc1nncc2cc(N3CCN(c4ccccc4)CC3)ccc12 reported_value=6.24
molecule="Cc1cc([C@H]2CN(c3ccc4c(N)nncc4c3)CCN2c2cccc(F)c2)no1.O=C(O)C(F)(F)F [Compound (R)-7]" reported_value=8.15
molecule=COc1cccc(N2CCN(c3ccc4c(N)nncc4c3)CC2)c1 reported_value=5.85
molecule=Cc1ccc(C(=O)N2CCN(c3ccc4c(N)nncc4c3)CC2)cc1 reported_value=5.60

Request: GET pIC50 | system: human C1s (Homo sapiens, UniProt P09871) | item: Cc1cc([C@H]2CN(c3cc(F)c4c(N)nncc4c3)CCN2c2cccc(F)c2)no1 [Compound (R)-8]
Result: 7.44

Value source: paper PMC10184130
